Biological target: hSERT (Homo sapiens (Human))
Reported property: pIC50
Numbers only, as −log10 of the molar value.

The compound identified as Clc1ccc(C2CNCc3cc(-c4ccc5ncnn5c4)ccc32)cc1Cl (single isomer, unassigned; enantiomer 7) [Example 1 (−)-enantiomer] registered its pIC50 at 8.38
